System: transformed HTM cells (TM-1)
testDescription: Cell-based assay measuring disruption of focal adhesions (paxillin staining)
Parameters: species or system human
condition: Homo sapiens, 6 h, TM-1 cells on fibronectin-coated glass, Mean ± SEM, N ≥ 3
measure: IC50

Solved entries (count: 2):
NC[C@@H](C(=O)Nc1ccc2cnccc2c1)c1ccc(COC(=O)c2ccccc2)cc1 = ~15 nM
NC[C@@H](C(=O)Nc1ccc2cnccc2c1)c1ccc(O)cc1 = ~193 nM

--- query ---
Exam item: Looking for the measured IC50 of NC[C@@H](C(=O)Nc1ccc2cnccc2c1)c1ccc(Cl)cc1 , can you help?
Marked response: ~5.6 nM

----------
// values below are reported Ki
system: ROCK1/2
testDescription: ROCK1/2 kinase assays, average of both isoforms
Format: biochemical, human
condition: average of ROCK1 and ROCK2 Ki

NC[C@@H](C(=O)Nc1ccc2cnccc2c1)c1ccc(COC(=O)c2ccccc2)cc1 = ~1.4 nM
Cc1ccc(C(=O)OCc2ccc([C@@H](CN)C(=O)Nc3ccc4cnccc4c3)cc2)c(C)c1 = ~2.7 nM

Exam item: Can you look up the measured Ki of NC[C@@H](C(=O)Nc1ccc2cnccc2c1)c1ccc(O)cc1 for me?
Marked response: ~3.1 nM

Exam item: Now give it for NC[C@@H](C(=O)Nc1ccc2cnccc2c1)c1ccc(Cl)cc1 too.
Marked response: ~1.5 nM

Exam item: Lookup NC[C@@H](C(=O)Nc1ccc2cnccc2c1Cl)c1ccccc1
Marked response: ~1.9 nM

----------
The listing below reports Ki for molecules tested on ROCK1 (Homo sapiens, UniProt Q13464).
Sequence (Q13464 whole entry): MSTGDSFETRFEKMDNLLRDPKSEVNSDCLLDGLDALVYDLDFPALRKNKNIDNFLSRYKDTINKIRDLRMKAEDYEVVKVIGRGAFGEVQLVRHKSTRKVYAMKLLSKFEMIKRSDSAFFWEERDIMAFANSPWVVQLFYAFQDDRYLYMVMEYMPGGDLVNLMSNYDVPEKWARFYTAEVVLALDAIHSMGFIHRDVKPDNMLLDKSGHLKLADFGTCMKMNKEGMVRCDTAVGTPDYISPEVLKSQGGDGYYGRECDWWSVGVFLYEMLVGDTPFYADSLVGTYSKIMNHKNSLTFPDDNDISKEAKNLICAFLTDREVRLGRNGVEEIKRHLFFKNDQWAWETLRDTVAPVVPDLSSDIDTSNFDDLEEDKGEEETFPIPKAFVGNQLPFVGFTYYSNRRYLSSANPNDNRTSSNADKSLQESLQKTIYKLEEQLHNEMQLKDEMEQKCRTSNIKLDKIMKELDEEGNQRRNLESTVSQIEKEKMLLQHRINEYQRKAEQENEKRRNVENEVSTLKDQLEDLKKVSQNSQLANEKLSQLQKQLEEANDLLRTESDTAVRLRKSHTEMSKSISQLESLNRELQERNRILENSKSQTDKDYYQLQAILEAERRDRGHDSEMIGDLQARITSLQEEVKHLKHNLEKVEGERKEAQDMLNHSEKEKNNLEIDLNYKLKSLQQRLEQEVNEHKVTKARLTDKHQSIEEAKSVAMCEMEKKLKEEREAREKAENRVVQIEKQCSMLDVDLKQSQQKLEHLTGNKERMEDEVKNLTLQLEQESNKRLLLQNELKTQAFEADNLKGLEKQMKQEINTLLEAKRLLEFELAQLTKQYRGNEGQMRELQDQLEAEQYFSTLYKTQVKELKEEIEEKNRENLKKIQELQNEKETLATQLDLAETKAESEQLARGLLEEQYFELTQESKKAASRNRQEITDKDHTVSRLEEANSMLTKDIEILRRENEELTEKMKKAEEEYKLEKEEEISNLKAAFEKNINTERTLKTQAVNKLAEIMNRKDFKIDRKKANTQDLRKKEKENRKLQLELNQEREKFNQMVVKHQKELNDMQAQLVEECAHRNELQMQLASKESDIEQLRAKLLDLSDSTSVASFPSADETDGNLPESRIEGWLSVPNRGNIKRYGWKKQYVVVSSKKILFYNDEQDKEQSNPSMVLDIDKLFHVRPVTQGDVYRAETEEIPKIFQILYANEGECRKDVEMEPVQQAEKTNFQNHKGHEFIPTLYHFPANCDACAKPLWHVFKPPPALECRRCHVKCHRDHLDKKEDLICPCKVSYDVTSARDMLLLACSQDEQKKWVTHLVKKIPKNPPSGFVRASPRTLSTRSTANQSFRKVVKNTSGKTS
Write the value in nM as a bare number.

NC[C@@H](C(=O)Nc1ccc2cnccc2c1Cl)c1ccccc1 = 1.7

Here is the next item to consider.
Exam item: Any idea what its Ki is? The molecule is NC[C@@H](C(=O)Nc1ccc2cnccc2c1)c1ccc(O)cc1
Marked response: 4.5

----------
system: ROCK2 (Homo sapiens)
Sequence (O75116 whole entry): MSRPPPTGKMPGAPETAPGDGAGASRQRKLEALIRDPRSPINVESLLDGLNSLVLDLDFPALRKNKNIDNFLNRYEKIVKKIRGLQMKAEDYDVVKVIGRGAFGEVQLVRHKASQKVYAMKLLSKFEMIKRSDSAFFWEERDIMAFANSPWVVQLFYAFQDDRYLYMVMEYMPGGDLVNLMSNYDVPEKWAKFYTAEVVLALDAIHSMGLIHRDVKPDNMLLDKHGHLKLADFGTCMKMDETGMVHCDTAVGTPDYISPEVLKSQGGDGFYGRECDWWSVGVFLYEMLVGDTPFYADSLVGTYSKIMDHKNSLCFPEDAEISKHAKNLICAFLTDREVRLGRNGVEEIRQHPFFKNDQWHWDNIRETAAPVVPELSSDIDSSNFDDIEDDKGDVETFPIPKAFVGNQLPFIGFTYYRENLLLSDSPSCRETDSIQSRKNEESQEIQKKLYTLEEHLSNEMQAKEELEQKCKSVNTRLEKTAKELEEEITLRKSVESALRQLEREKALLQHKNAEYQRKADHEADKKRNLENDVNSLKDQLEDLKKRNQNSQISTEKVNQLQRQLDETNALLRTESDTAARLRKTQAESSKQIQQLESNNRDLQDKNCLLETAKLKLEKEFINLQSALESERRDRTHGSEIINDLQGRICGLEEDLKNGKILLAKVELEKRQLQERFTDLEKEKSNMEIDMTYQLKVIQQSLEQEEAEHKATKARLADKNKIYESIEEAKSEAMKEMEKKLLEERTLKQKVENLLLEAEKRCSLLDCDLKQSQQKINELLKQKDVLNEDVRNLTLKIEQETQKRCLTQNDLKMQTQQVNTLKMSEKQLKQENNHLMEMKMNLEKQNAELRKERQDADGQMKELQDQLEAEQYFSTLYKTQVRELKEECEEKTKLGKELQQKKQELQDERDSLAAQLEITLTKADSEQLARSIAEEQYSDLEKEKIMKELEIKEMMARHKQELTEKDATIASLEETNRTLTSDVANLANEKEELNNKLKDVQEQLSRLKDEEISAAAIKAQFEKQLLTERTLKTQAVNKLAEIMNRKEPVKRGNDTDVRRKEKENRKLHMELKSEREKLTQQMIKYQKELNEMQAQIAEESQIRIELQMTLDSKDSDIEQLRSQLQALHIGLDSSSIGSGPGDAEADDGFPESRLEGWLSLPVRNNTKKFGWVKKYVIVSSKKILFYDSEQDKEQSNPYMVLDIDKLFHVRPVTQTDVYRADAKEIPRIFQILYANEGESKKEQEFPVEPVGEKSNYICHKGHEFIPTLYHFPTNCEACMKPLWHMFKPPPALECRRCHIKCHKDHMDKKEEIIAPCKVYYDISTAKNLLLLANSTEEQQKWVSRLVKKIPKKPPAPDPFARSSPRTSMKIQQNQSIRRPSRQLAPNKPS
measure: Ki (nM)
Please respond with the number in nM and leave the unit unwritten.

Exam item: What does the record list as Ki for NC[C@@H](C(=O)Nc1ccc2cnccc2c1)c1ccc(Cl)cc1 [Compound C] ?
Marked response: 1.2
